Where do these numbers come from? They come from patent US20250140406A1.

// reported MSL Corr test for each item listed
System: cancer cell lines classified IM, MSL, M
Assay protocol: PRISM screen compound sensitivity correlated with IM, MSL and M subtype of cell lines (101 gene signature)
Format: cell-based
Condition info: correlation of PRISM compound sensitivity with MSL subtype correlation; test cell set (188 cell lines)

# Smiles notation, Tested on, MSL Corr test
measured = [
    ("Cc1ccc(CNc2ncnc3ccc(-c4ccc(CO)o4)cc23)o1", "cancer cell lines classified IM, MSL, M", 0.01781),
]

Asked: Please report the recorded MSL Corr test for CCCN(CCC)CCc1ccc(OC)c(OCCc2ccccc2)c1 .
Given back: −0.07257

Asked: Please report the recorded MSL Corr test for O=Nc1ccc(O)c2ncccc12 .
Given back: −0.09058

Asked: Please report the recorded MSL Corr test for C[C@@H](Oc1ccc2[nH]nc(/C=C/c3cnn(CCO)c3)c2c1)c1c(Cl)cncc1Cl .
Given back: −0.1021

Asked: Please report the recorded MSL Corr test for CC(=O)NCC(=O)N1[C@@H]2CC[C@H]1c1ccc(Nc3ncc(C(F)(F)F)c(NC4CCC4)n3)cc12 .
Given back: −0.04366
